experiment: modulators of HCV replicon luciferase signal, primary screen, HCV replication inhibitor project, Huh7 cells, luciferase reporter (AID 1109); details: 48 h, higher = more signal;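 note: huh7 hepatoma cells harbouring a luciferase neomycin HCV replicon reporter; luciferase luminescence as measure of HCV replicon replication; test concentration not given here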
Parameter measured: z-score

>>> result_number("COc1ccc([Si](C)(C)[C@H]2[C@H](CC(=O)N3CCC[C@H]3CO)O[C@@]3(C(=O)N(C)c4ccccc43)[C@@H]2C)cc1")
-0.812
>>> result_number("C=CCN1C(=O)[C@@]2(O[C@@H](CCO)[C@H]([Si](C)(C)c3ccc(OC)cc3)[C@H]2C)c2cc(N3CCCCC3=O)ccc21")
-3.29
>>> result_number("C=CC[C@]1(C(N)=O)N=C(c2ccc(OCCCO)cc2)O[C@H]1c1ccccc1N=[N+]=[N-]")
0.304
>>> result_number("NCCCCCCNC(=O)[C@@H]1C[C@@H]2C(=O)NCC(=O)N2[C@@H]1c1cccc(OCCO)c1")
-0.453
>>> result_number("CC1CC/C=C\\[C@H]2OC34C=CCN(CCN5CCOCC5)C(=O)[C@H]3N(C(CO)C(C)C)C(=O)[C@@H]4C2C(=O)O1 (stereo partly specified)")
-0.278
>>> result_number("O=C1OC[C@@H](c2ccccc2)n2cc(/C=C/c3ccccc3)cc21")
-0.18
>>> result_number("CO[C@H]1O[C@H](CO)[C@@H](OC(=O)Nc2cccc(F)c2)[C@H](OC(=O)c2cc3ccccc3[nH]2)[C@H]1OC(=O)c1cc2ccccc2[nH]1")
-2.25
>>> result_number("COCCOC(=O)N1C(=O)[C@@]2(c3cc(C#CC4=CCCCC4)ccc31)[C@H](c1ccc(O)cc1)N1[C@H](c3ccccc3)[C@H](c3ccccc3)OC(=O)[C@H]1[C@@H]2C(=O)N1CCc2cc(OC)c(OC)cc2C1")
-0.993
>>> result_number("O=C1OCC=C[C@H]2OC34C=CCN(Cn5nnc6ccccc65)C(=O)[C@H]3N(CCO)C(=O)[C@@H]4[C@@H]12 (stereo partly specified)")
-0.105
>>> result_number("COC(=O)c1c2oc(c1C(=O)OC)C(=O)N[C@H](Cc1ccccc1)Cn1cc(nn1)C1(CCCCC1)NC(=O)N[C@H](CO)CC2")
0.0733
>>> result_number("COCCOC(=O)N1C(=O)[C@@]2(c3cc(C#CCNC(N)=O)ccc31)[C@H](c1ccc(O)cc1)N1[C@H](c3ccccc3)[C@H](c3ccccc3)OC(=O)[C@H]1[C@@H]2C(=O)N1CCc2cc(OC)c(OC)cc2C1")
-0.281

---

biological target: Luciferin 4-monooxygenase (Photinus pyralis); test: firefly luciferase enzyme inhibitors, primary screen, biochemical, luminescence, purified enzyme, 2006 set (AID 1141); details: SteadyGlo luminescence, 30 min, higher = more signal, called active from +8 up or from −8 down;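 note: cell-free assay with purified firefly luciferase at 100 ng per well in PBS; test concentration not given here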
Parameter measured: z-score

>>> result_number("COC(=O)C1=CC(CCCO)=CC(c2ccc(CN3CCCC3)cc2)N(C)C=C1C(=O)OC (centres undefined)")
-0.208
>>> result_number("COC(=O)C(CC#Cc1ccc2c(c1)[C@]1(C(=O)N2)[C@H](C(N)=O)[C@H]2C(=O)O[C@H](c3ccccc3)[C@H](c3ccccc3)N2[C@@H]1c1ccccc1OCCO)C(=O)OC")
-0.638
>>> result_number("C=C(C)C1CN([C@H](CO)c2ccccc2)C(=O)/C1=C\\c1ccccc1 (some centres undefined)")
0.264
>>> result_number("CN(C)CCCCNC(=O)[C@H]1C[C@H]2C(=O)N[C@@H](CCCCN(C)C)C(=O)N2[C@H]1c1ccc(O)cc1")
0.47
